assay: In vivo toxicological study in rats: haematology; set-up: species or system rats of the Wistar strain; details: female, 30 mg/kg oral daily 7 d
Below: a set of entries, each annotated with reported MONO.
READOUT_KIND: MONO

> print(dat)
                                   compound     observed
1  N#Cc1c(NC(=O)c2cccc3ccccc23)sc2c1CCN(CC(=O)Nc1cccc(Br)c1)C2 [PKL-B171]  0.13 10^9/l
2  N#Cc1c(NC(=O)c2cccc3ccccc23)sc2c1CCN(C(=O)Nc1ccccc1OC(F)(F)F)C2 [PKL-A159]  0.13 10^9/l
3  COc1ccccc1NC(=O)N1CCc2c(sc(NC(=O)c3cccc4ccccc34)c2C#N)C1 [PKL-A152]  0.17 10^9/l
4  COc1ccc(C(=O)Nc2sc3c(c2C#N)CCCCC3)cc1OC [PKL-A135]  0.17 10^9/l
